Documented pIC50 across a set of compounds
Experimental target: rh beta tryptase (Homo sapiens)
Sequence (Q15661 31-275): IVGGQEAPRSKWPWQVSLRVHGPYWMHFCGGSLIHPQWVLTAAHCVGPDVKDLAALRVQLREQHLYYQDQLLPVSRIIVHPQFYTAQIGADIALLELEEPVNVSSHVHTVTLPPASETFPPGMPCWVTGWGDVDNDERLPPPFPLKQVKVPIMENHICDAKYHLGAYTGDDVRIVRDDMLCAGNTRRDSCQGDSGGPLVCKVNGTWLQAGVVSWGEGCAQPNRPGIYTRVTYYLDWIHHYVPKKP
Method summary: tryptase inhibition test (cleavage of N-p-tosyl-Gly-Pro-Lys-para-nitroaniline, p-nitroaniline measured at 405 nm)
Assay setup: Tris HCl buffer pH 7.4 with calcium and heparin; substrate 0.6 mM; 5 min pre-incubation, 5 min incubation at 37° C.; enzyme activity 0.91 U/ml
pIC50: −log10 of the molar value.
Property: pIC50

Compound: CN(C)CCCCN(c1ccc2c(c1)nc(CCc1ccc(C(=N)N)cc1)n2C)S(=O)(=O)c1ccccc1 [Example 54]
Assay value: 7.57
//
Compound: CCN(CC)CCN(c1ccc2c(c1)nc(CCc1ccc(C(=N)N)cc1)n2CCO)S(=O)(=O)c1ccccc1 [Example 16]
Assay value: 6.92
//
Compound: Cn1c(CCc2ccc(C(=N)N)cc2)nc2cc(N(C3CCN(Cc4ccccc4)CC3)S(=O)(=O)c3ccccc3)ccc21 [Example 13]
Assay value: 7.12
//
Compound: CCN(CC)CCN(c1ccc2c(c1)nc(CCc1ccc(C(=N)N)cc1)n2CCCO)S(=O)(=O)c1ccccc1 [Example 19]
Assay value: 6.62

Cited source for all entries: patent US6365584B1
